tested on: S. aureus SA0422; test: microbe, parasite or virus in culture; details: Staphylococcus aureus, SA0422, read-out: MIC values
Kindly state MIC for each of the entries shown.
Give bare numbers, in µg/mL.

compound="C/C(=C\\C(=O)OCCCCCCCCC(=O)O)C[C@@H]1OC[C@H](C[C@@H]2O[C@H]2[C@@H](C)[C@H](C)O)[C@@H](O)[C@H]1O [Mupirocin]" measured_endpoint=MIC assay_value=1
compound="Cc1onc(-c2ccccc2)c1C(=O)N[C@@H]1C(=O)N2[C@@H]1SC(C)(C)[C@@H]2C(=O)O [Oxacillin]" measured_endpoint=MIC assay_value=512

Please examine the following record next.
## Task Reported MIC for COc1c(N2C[C@@H]3CCCN[C@@H]3C2)c(F)cc2c(=O)c(C(=O)O)cn(C3CC3)c12 [Moxifloxacin] : what is it?
## Result 2

----------
test system: S. aureus SA0422; assay: microbe, parasite or virus in culture; conditions: Staphylococcus aureus, SA0422, read-out: MIC values
measured-endpoint: MIC
Answer format: value, then unit.

sample_smiles=CN(C)[C@@H]1C(O)=C(C(N)=O)C(=O)[C@@]2(O)C(O)=C3C(=O)c4c(O)cccc4[C@@](C)(O)[C@H]3C[C@@H]12 assay_value="0.06 µg/mL"
sample_smiles=CC[C@H]1OC(=O)[C@H](C)[C@@H](O[C@H]2C[C@@](C)(OC)[C@@H](O)[C@H](C)O2)[C@H](C)[C@@H](O[C@@H]2O[C@H](C)C[C@H](N(C)C)[C@H]2O)[C@](C)(O)C[C@@H](C)C(=O)[C@H](C)[C@@H](O)[C@]1(C)O assay_value="0.125 µg/mL"
sample_smiles=CCC[C@@H]1C[C@@H](C(=O)N[C@@H]([C@H]2O[C@H](SC)[C@H](O)[C@@H](O)[C@H]2O)[C@H](C)Cl)N(C)C1 assay_value="0.06 µg/mL"
sample_smiles=CO[C@H]1/C=C/O[C@@]2(C)Oc3c(C)c(O)c4c(O)c(c(/C=N/N5CCN(C)CC5)c(O)c4c3C2=O)NC(=O)/C(C)=C\C=C\[C@H](C)[C@H](O)[C@@H](C)[C@@H](O)[C@@H](C)[C@H](OC(C)=O)[C@@H]1C assay_value="0.004 µg/mL"

## Task Please give the measured MIC for this compound: O=C(O)c1cn(C2CC2)c2cc(N3CCNCC3)c(F)cc2c1=O
## Result 128 µg/mL

----------
test system: S. aureus ATCC 29213; assay: microbe, parasite or virus in culture; conditions: Staphylococcus aureus, ATCC29213, read-out: MIC values
Give measured MIC for each item. Keep answers brief.
Give bare numbers, in µg/mL.

sample_smiles=CN(C)[C@@H]1C(O)=C(C(N)=O)C(=O)[C@@]2(O)C(O)=C3C(=O)c4c(O)cccc4[C@@](C)(O)[C@H]3C[C@@H]12 measured_endpoint=MIC assay_value=0.125
sample_smiles=CO[C@@]1(NC(=O)Cc2cccs2)C(=O)N2C(C(=O)O)=C(COC(N)=O)CS[C@@H]21 measured_endpoint=MIC assay_value=4

Below: the item to evaluate.
## Task Look up MIC: CCC[C@@H]1C[C@@H](C(=O)N[C@@H]([C@H]2O[C@H](SC)[C@H](O)[C@@H](O)[C@H]2O)[C@H](C)Cl)N(C)C1
## Result 0.06

These data points were gathered from paper PMC10215302.
